biological target: Protease (Human immunodeficiency virus 1); experiment: Inhibition of HIV1 recombinant protease
Sequence (Q9YQ12 whole entry): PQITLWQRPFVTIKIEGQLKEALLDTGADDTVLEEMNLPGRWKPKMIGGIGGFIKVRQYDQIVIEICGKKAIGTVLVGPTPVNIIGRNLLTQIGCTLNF
Property label: IC50 (nM)

[
  {
    "Molecule": "O=C(N[C@H]1c2ccccc2C[C@H]1O)[C@H](Cc1ccccc1)C[S+]([O-])C[C@H](Cc1ccccc1)C(=O)N[C@H]1c2ccccc2C[C@H]1O",
    "Value unit": "nM",
    "IC50": 53.1
  }
]

1 = N=[S+]([O-])([C@H](Cc1ccccc1)C(=O)N[C@H]1c2ccccc2C[C@H]1O)[C@@H](Cc1ccccc1)C(=O)N[C@H]1c2ccccc2C[C@H]1O
2 = O=C(N[C@@H]1c2ccccc2C[C@@H]1O)[C@@H](Cc1ccccc1)C[S+]([O-])C[C@H](Cc1ccccc1)C(=O)N[C@@H]1c2ccccc2C[C@@H]1O (single isomer, unassigned)
3 = N=[S+]([O-])([C@H](Cc1ccccc1)C(=O)N[C@H]1c2ccccc2C[C@H]1O)[C@H](Cc1ccccc1)C(=O)N[C@H]1c2ccccc2C[C@H]1O
4 = N=[S+]([O-])(C[C@H](Cc1ccccc1)C(=O)N[C@@H]1c2ccccc2C[C@@H]1O)C[C@H](Cc1ccccc1)C(=O)N[C@@H]1c2ccccc2C[C@@H]1O
# sort list by recorded IC50, greatest to least Labels, requested order.
3, 1, 2, 4
(3: 154 nM, 1: 37.3 nM, 2: 21.1 nM, 4: 2.5 nM)
